pIC50: −log10 of the molar value.
Assay read-out pIC50 on human mPGES-1 (Homo sapiens, UniProt O14684); records merged from the literature.
Sequence (O14684 whole entry): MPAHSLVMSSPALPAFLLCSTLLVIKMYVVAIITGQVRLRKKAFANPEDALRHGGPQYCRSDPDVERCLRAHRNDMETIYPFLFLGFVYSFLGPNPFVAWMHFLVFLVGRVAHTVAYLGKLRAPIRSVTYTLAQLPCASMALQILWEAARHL
Label 1.0 when pIC50 >= 8; otherwise 0.0.

Compound	Assigned class
CSc1ccc(/C=C/S(=O)(=O)Nc2cccc(F)c2S(N)(=O)=O)cc1	0.0
CC(CS(=O)(=O)Nc1ccccc1S(N)(=O)=O)c1ccccc1 (stereo not shown)	0.0
CC(C)(C)C#Cc1ccc(C(=O)NS(=O)(=O)c2ccc(O)cc2S(N)(=O)=O)cc1	0.0
Cc1cccc(C)c1-c1nc(O)nc(-c2ccc(O[C@H](C)c3ccccc3)cc2)n1	0.0
NS(=O)(=O)c1ccccc1S(=O)(=O)NC(=O)c1ccc(-c2nc3ccccc3s2)cc1	0.0
CC1(C(=O)NCc2ccc(Cl)c(-c3nc(O)nc(-c4ccccc4)n3)c2)CCC1	1.0
N#Cc1ccc(S(N)(=O)=O)c(NS(=O)(=O)CCc2ccc(Cl)c(Cl)c2)c1	0.0
NS(=O)(=O)c1ccccc1NS(=O)(=O)CCc1ccc(-c2ccc(C(F)(F)F)cc2)cc1	0.0
CC(C)(C(=O)NCc1ccc(Cl)c(-c2nc(O)nc(-c3ccc(OCCC4CC4)cc3)n2)c1)C(F)(F)F	1.0
COc1ccc(-c2nc(O)nc(-c3cc(CNC(=O)C(C)(C)C(F)(F)F)ccc3Cl)n2)cc1	1.0
COc1cc(C(=O)NS(=O)(=O)c2ccccc2S(N)(=O)=O)ccc1C#CC(C)(C)OC	0.0
CC(C)(C)C(=O)NCc1ccc(Cl)c(-c2nc(O)nc(-c3cccc(OC(F)(F)F)c3)n2)c1	1.0
NS(=O)(=O)c1ccccc1S(=O)(=O)NC(=O)c1cnc(C#CC2CCCC2)c(Cl)c1	0.0
CC(C)(C(=O)NCc1ccc(Cl)c(-c2nc(O)nc(-c3cccc(C4CC4)c3)n2)c1)C(F)(F)F	1.0

====

pIC50: −log10 of the molar value.
Assay read-out pIC50 on human mPGES-1 (Homo sapiens, UniProt O14684); records merged from the literature.
Label condition met when pIC50 >= 7; otherwise condition not met.

Chemical smiles	Assigned class
COc1cccc(Cl)c1-c1nc(O)nc(-c2ccc(OCc3ccccc3)cc2)n1	condition met
COCCOCCOc1cc(C(=O)NS(=O)(=O)c2ccccc2S(N)(=O)=O)ccc1C#CC(C)(C)C	condition not met
CC(C)(O)C#Cc1ccc(C(=O)NS(=O)(=O)c2ccccc2S(N)(=O)=O)cc1	condition not met
NS(=O)(=O)c1ccccc1S(=O)(=O)NC(=O)c1ccc(C#Cc2ccccc2)cc1	condition met
Cc1cccc(COc2cccc(C(F)(F)F)c2-c2nc(O)nc(-c3ccc(C#Cc4cccc(Cl)c4)cc3)n2)n1	condition met
Cc1ccc(-c2nc(O)nc(-c3cc(CNC(=O)C(C)(C)C)ccc3Cl)n2)cc1	condition met
CCCOc1cccc(Cl)c1-c1nc(O)nc(-c2ccc(C(F)(F)F)cc2)n1	condition met
C[C@@H](Oc1ccc(-c2nc(O)nc(-c3cc(CNC(=O)C(C)(C)C(F)(F)F)ccc3Cl)n2)cc1)C1CC1	condition met
NS(=O)(=O)c1ccccc1NS(=O)(=O)CCc1ccc(C(F)(F)F)cc1OCC1CCOCC1	condition met
NS(=O)(=O)c1cc(F)ccc1NS(=O)(=O)/C=C/c1ccc(-c2ccco2)cc1	condition not met
NS(=O)(=O)c1ccccc1NS(=O)(=O)c1ccc2c(c1)CCC2	condition not met
NS(=O)(=O)c1ccccc1S(=O)(=O)NC(=O)c1ccc(C#CC2CC2)c(OCCC(F)(F)F)c1	condition met
NS(=O)(=O)c1ccccc1S(=O)(=O)NC(=O)c1ccc(-c2cc3ccccc3o2)c(CO)c1	condition met
NS(=O)(=O)c1ccccc1S(=O)(=O)NC(=O)c1ccc2oc(C3CCCC3)cc2c1	condition not met
CC(C)C#Cc1ccc(C(=O)NS(=O)(=O)c2ccccc2S(N)(=O)=O)cc1OCCCF	condition met
